B1: glmS ribozyme (parent)
chain: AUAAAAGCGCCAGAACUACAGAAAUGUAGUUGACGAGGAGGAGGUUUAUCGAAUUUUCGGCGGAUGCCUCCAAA

Variants of: B1
TEST SUMMARY: self-cleavage kobs at 40 uM GlcN6P; higher = faster cleavage; RNA array
TEST SETTINGS: with glucosamine-6-phosphate
Fewer inactive variants are shown than the library holds.
ENDPOINT: self-cleavage kobs at 40 uM GlcN6P

variant_description="C8U G13C" endpoint="self-cleavage kobs at 40 uM GlcN6P" reading="< 1e-05 s⁻¹"
variant_description="U31C A39U" endpoint="self-cleavage kobs at 40 uM GlcN6P" reading="7.06e-05 s⁻¹"
variant_description="C16G C58U" endpoint="self-cleavage kobs at 40 uM GlcN6P" reading="< 1e-05 s⁻¹"
variant_description="A15G U47G U55A" endpoint="self-cleavage kobs at 40 uM GlcN6P" reading="0.000187 s⁻¹"
variant_description="G7U A36U G40C" endpoint="self-cleavage kobs at 40 uM GlcN6P" reading="< 1e-05 s⁻¹"
variant_description="C11A G41A C50G G59U" endpoint="self-cleavage kobs at 40 uM GlcN6P" reading="< 1e-05 s⁻¹"
variant_description="C8A C58U" endpoint="self-cleavage kobs at 40 uM GlcN6P" reading="< 1e-05 s⁻¹"
variant_description="A14G G35C" endpoint="self-cleavage kobs at 40 uM GlcN6P" reading="< 1e-05 s⁻¹"
variant_description="A12C G41A" endpoint="self-cleavage kobs at 40 uM GlcN6P" reading="7.57e-05 s⁻¹"
variant_description="C34U G51U U54C U57G" endpoint="self-cleavage kobs at 40 uM GlcN6P" reading="< 1e-05 s⁻¹"
variant_description="C10U U45G" endpoint="self-cleavage kobs at 40 uM GlcN6P" reading="< 1e-05 s⁻¹"
variant_description="C8U G43A" endpoint="self-cleavage kobs at 40 uM GlcN6P" reading="< 1e-05 s⁻¹"
variant_description="C16A C61U C70A" endpoint="self-cleavage kobs at 40 uM GlcN6P" reading="< 1e-05 s⁻¹"
variant_description="G41C U47C C68U" endpoint="self-cleavage kobs at 40 uM GlcN6P" reading="< 1e-05 s⁻¹"
variant_description="G9U U56G C71A" endpoint="self-cleavage kobs at 40 uM GlcN6P" reading="< 1e-05 s⁻¹"
variant_description="U30C G37U" endpoint="self-cleavage kobs at 40 uM GlcN6P" reading="< 1e-05 s⁻¹"
variant_description="A39G C58U" endpoint="self-cleavage kobs at 40 uM GlcN6P" reading="< 1e-05 s⁻¹"
variant_description="C16U U54A" endpoint="self-cleavage kobs at 40 uM GlcN6P" reading="0.000888 s⁻¹"
variant_description="A15U G51C" endpoint="self-cleavage kobs at 40 uM GlcN6P" reading="< 1e-05 s⁻¹"
variant_description="C11G U31G A53C" endpoint="self-cleavage kobs at 40 uM GlcN6P" reading="< 1e-05 s⁻¹"
variant_description="G35C G40U" endpoint="self-cleavage kobs at 40 uM GlcN6P" reading="< 1e-05 s⁻¹"
variant_description="C8A A64U" endpoint="self-cleavage kobs at 40 uM GlcN6P" reading="< 1e-05 s⁻¹"
variant_description="C8A C11G A12G C68U" endpoint="self-cleavage kobs at 40 uM GlcN6P" reading="< 1e-05 s⁻¹"
variant_description="A15G U25A C50G C70U" endpoint="self-cleavage kobs at 40 uM GlcN6P" reading="6.43e-05 s⁻¹"
variant_description="A15U G59C" endpoint="self-cleavage kobs at 40 uM GlcN6P" reading="< 1e-05 s⁻¹"
variant_description="A6C G29U C34U U47G C58G C70G" endpoint="self-cleavage kobs at 40 uM GlcN6P" reading="0.000135 s⁻¹"
variant_description="G29U A53U" endpoint="self-cleavage kobs at 40 uM GlcN6P" reading="8.45e-05 s⁻¹"
variant_description="A53C A64G" endpoint="self-cleavage kobs at 40 uM GlcN6P" reading="7.76e-05 s⁻¹"
variant_description="U55C G63U" endpoint="self-cleavage kobs at 40 uM GlcN6P" reading="< 1e-05 s⁻¹"
variant_description="A48C G51U C58G" endpoint="self-cleavage kobs at 40 uM GlcN6P" reading="< 1e-05 s⁻¹"
variant_description="G35U U47A C50G C70U" endpoint="self-cleavage kobs at 40 uM GlcN6P" reading="0.000411 s⁻¹"
variant_description="A36G A42U" endpoint="self-cleavage kobs at 40 uM GlcN6P" reading="< 1e-05 s⁻¹"
variant_description="G43C G63U" endpoint="self-cleavage kobs at 40 uM GlcN6P" reading="< 1e-05 s⁻¹"
variant_description="G44C U46A G51A" endpoint="self-cleavage kobs at 40 uM GlcN6P" reading="< 1e-05 s⁻¹"
variant_description="G13C G35C" endpoint="self-cleavage kobs at 40 uM GlcN6P" reading="< 1e-05 s⁻¹"
variant_description="G37C U54A U55C G63C U69G" endpoint="self-cleavage kobs at 40 uM GlcN6P" reading="< 1e-05 s⁻¹"
variant_description="G40U C70G" endpoint="self-cleavage kobs at 40 uM GlcN6P" reading="2.91e-05 s⁻¹"
variant_description="G29C C71U" endpoint="self-cleavage kobs at 40 uM GlcN6P" reading="6.23e-05 s⁻¹"
variant_description="A6C G63A" endpoint="self-cleavage kobs at 40 uM GlcN6P" reading="< 1e-05 s⁻¹"
variant_description="A33G U45C" endpoint="self-cleavage kobs at 40 uM GlcN6P" reading="< 1e-05 s⁻¹"
variant_description="A39C U49A" endpoint="self-cleavage kobs at 40 uM GlcN6P" reading="< 1e-05 s⁻¹"
variant_description="C10U G29C G37A A53C" endpoint="self-cleavage kobs at 40 uM GlcN6P" reading="< 1e-05 s⁻¹"
variant_description="G40A U47G" endpoint="self-cleavage kobs at 40 uM GlcN6P" reading="8.03e-05 s⁻¹"
variant_description="A48U G63U" endpoint="self-cleavage kobs at 40 uM GlcN6P" reading="< 1e-05 s⁻¹"
variant_description="C10U G37C A42C" endpoint="self-cleavage kobs at 40 uM GlcN6P" reading="< 1e-05 s⁻¹"
variant_description="G40U U56C G59C" endpoint="self-cleavage kobs at 40 uM GlcN6P" reading="< 1e-05 s⁻¹"

All values here come from the supplement of paper PMC7125110.
